# TGI listing for each entry below
# Tested on: IGROV1 ovarian
# Test protocol: NCI tumour cell line growth inhibition, 48 h

>  <Compound>
O=C(c1cc(Br)ccc1O)c1cc(Br)ccc1O

>  <Measurement units>
µM

>  <Comparison operator>
=

>  <TGI>
27.8

$$$$
>  <Compound>
CC(=O)OC1OC2C(NC(=O)OC(C)(C)C)C1CC2(OCc1ccccc1)OCc1ccccc1 (stereo not given)

>  <Measurement units>
µM

>  <Comparison operator>
=

>  <TGI>
90.3

$$$$
>  <Compound>
CN(C)[C@@H]1C(=O)C(C(=O)NCNCCCC(=O)O)=C(O)[C@@]2(O)C(=O)C3=C(O)c4c(O)cccc4[C@@](C)(O)[C@H]3C[C@@H]12

>  <Measurement units>
µM

>  <Comparison operator>
>

>  <TGI>
100

$$$$
>  <Compound>
CN(C)c1ccc(/C=C2\N=C(N/N=C/c3ccccc3)NC2=O)cc1

>  <Measurement units>
µM

>  <Comparison operator>
>

>  <TGI>
100

$$$$
>  <Compound>
O=C1c2ccccc2C(=O)c2c(NCCNC(=O)C3CCCN3)ccc(NCCNC(=O)C3CCCN3)c21 (stereo not given)

>  <Measurement units>
µM

>  <Comparison operator>
>

>  <TGI>
100

$$$$

* * *

# System: UACC-62 melanoma
# Test protocol: NCI tumour cell line growth inhibition, 48 h; in the data active = GI50 below about 0.43 µM; inactive = the rest
Outcomes: active, inactive

>  <Compound>
COc1cc(-c2nn(C(=O)NS(=O)(=O)c3ccc(C)cc3)cc2-c2ccncc2)ccc1Cl

>  <Subject of test>
UACC-62 melanoma

>  <Assigned category>
inactive

$$$$
>  <Compound>
CCCCCC(=O)OCC(=O)O[C@@H]1C[C@]2(C(C)C)O[C@@]1(C)[C@@H]1CC[C@@H](C)[C@H]1[C@@H]2OC(=O)/C=C/c1ccccc1

>  <Subject of test>
UACC-62 melanoma

>  <Assigned category>
inactive

$$$$
>  <Compound>
COC(=O)c1c2c(c(C)[n+]([O-])c1C)C(=O)C(NCc1cccc(OC)c1)=CC2=O

>  <Subject of test>
UACC-62 melanoma

>  <Assigned category>
inactive

$$$$
>  <Compound>
Cc1ccc(C2SCc3nc4ccc(C(=O)c5ccccc5)cc4n32)cc1 (centres undefined)

>  <Subject of test>
UACC-62 melanoma

>  <Assigned category>
inactive

$$$$
>  <Compound>
COc1ccccc1CNC(=O)C1c2ccccc2C(=O)N(CC(C)C)C1c1cccs1 (centres undefined)

>  <Subject of test>
UACC-62 melanoma

>  <Assigned category>
inactive

$$$$
>  <Compound>
COc1cc(/C=C2\CC3C4CC=C5C[C@@H](N6CCCC6)CC[C@]5(C)C4CC[C@]3(C)[C@H]2OC(C)=O)ccc1OCCN1CCCCC1 (some centres undefined)

>  <Subject of test>
UACC-62 melanoma

>  <Assigned category>
inactive

$$$$
>  <Compound>
O=C(NCCCNC(=O)OCc1ccc2c(Br)cc(Br)c(O)c2n1)OCc1ccc2c(Br)cc(Br)c(O)c2n1

>  <Subject of test>
UACC-62 melanoma

>  <Assigned category>
inactive

$$$$
>  <Compound>
BrC(Br)(Br)c1cnc2ccccc2n1

>  <Subject of test>
UACC-62 melanoma

>  <Assigned category>
inactive

$$$$
>  <Compound>
CCn1c(-c2nonc2N)nc2c(C#CC(C)(C)O)nc(O[C@@H](CN)c3ccccc3)cc21

>  <Subject of test>
UACC-62 melanoma

>  <Assigned category>
active

$$$$

* * *

# Tested on: NCI/ADR-RES ovarian
# Test protocol: NCI tumour cell line growth inhibition, 48 h; in the data active = GI50 below about 0.43 µM; inactive = the rest
Labels: active, inactive

>  <Compound>
COc1cc(/C=C2\CC3C4CC=C5C[C@@H](N6CCCC6)CC[C@]5(C)C4CC[C@]3(C)[C@H]2OC(C)=O)ccc1OCCN1CCCCC1 (stereo partly specified)

>  <Assigned category>
inactive

$$$$
>  <Compound>
Oc1ccc(/C=N/Nc2nc3ccccc3s2)c(O)c1

>  <Assigned category>
inactive

$$$$
>  <Compound>
COc1ccc2[nH]c(-c3cccc(N(C)C)c3)cc(=O)c2c1

>  <Assigned category>
inactive

$$$$
>  <Compound>
Cc1ccccc1-n1c(/C=C\c2ccccn2)nc2ccccc2c1=O

>  <Assigned category>
inactive

$$$$
>  <Compound>
COc1cc2nc(-c3ccc(-n4cncc4-c4ccc(N)cc4)cc3)sc2c(OC)c1OC

>  <Assigned category>
inactive

$$$$
>  <Compound>
CC(C)=CCC/C(C)=C/CC/C(=C/COP(=O)(OCc1ccc([N+](=O)[O-])o1)N(C)CCCCCl)CC=C(C)C (stereo unspecified)

>  <Assigned category>
inactive

$$$$
>  <Compound>
CN1CCN(Cc2ccc(NC(=O)c3[nH]ncc3Nc3ncnc4sccc34)cc2)CC1

>  <Assigned category>
inactive

$$$$
>  <Compound>
CC(F)(F)c1cc(F)ccc1-c1sc2cc(O)ccc2c1Oc1ccc(/C=C/C(=O)O)cc1

>  <Assigned category>
inactive

$$$$
>  <Compound>
O=C1C(Cl)=C(Nc2cccc(C(F)(F)F)c2)C(=O)N1Cc1ccccc1Cl

>  <Assigned category>
inactive

$$$$
>  <Compound>
COc1cc(-c2nc(SCC(=O)Nc3ccc(C(C)=O)cc3)[nH]c(=O)c2C#N)cc(OC)c1OC

>  <Assigned category>
inactive

$$$$
>  <Compound>
O=C(NCCN1CCOCC1)Nc1ccc(-c2cc3c(Nc4ccc(Oc5cccc(C(F)(F)F)c5)c(Cl)c4)ncnc3s2)cc1

>  <Assigned category>
inactive

$$$$
>  <Compound>
CCCC[P+](c1ccccc1)(c1ccccc1)c1ccccc1

>  <Assigned category>
inactive

$$$$
>  <Compound>
CCCCCCNC(=O)Oc1ccc(/C(=C(\C)c2ccccc2)c2ccc(OCCN3CCCCC3)cc2)cc1

>  <Assigned category>
inactive

$$$$
>  <Compound>
O=C(c1ccco1)c1c(C(F)(F)F)nc2cc(C(F)(F)F)ccc2[n+]1[O-]

>  <Assigned category>
inactive

$$$$
>  <Compound>
COc1cccc2c1cc([N+](=O)[O-])c1c(C(=O)O)cc3c(c12)OCO3

>  <Assigned category>
inactive

$$$$
>  <Compound>
CS(=O)c1ccc(-c2nc(-c3ccc(F)cc3)c(-c3ccncc3)[nH]2)cc1 (stereo unspecified)

>  <Assigned category>
inactive

$$$$
>  <Compound>
O=C(NCCCNC(=O)OCc1ccc2c(Br)cc(Br)c(O)c2n1)OCc1ccc2c(Br)cc(Br)c(O)c2n1

>  <Assigned category>
inactive

$$$$
>  <Compound>
Cc1ccc(S(=O)(=O)NC(CCC(=O)Nc2ccccc2)C(=O)Nc2ccccc2)cc1 (stereo unspecified)

>  <Assigned category>
inactive

$$$$
>  <Compound>
COc1cccc(Cn2cc3c(c2)-c2oncc2CC3)c1

>  <Assigned category>
active

$$$$
>  <Compound>
O=C(Nc1cccc2cccnc12)c1ccc(N2C(=O)[C@@H]3[C@H](C2=O)[C@@H]2C=C[C@H]3C2)cc1

>  <Assigned category>
inactive

$$$$
>  <Compound>
CCOC(=O)c1c(C)n(CC(C)C)c2c1cc1oc(=O)c(=O)n3cnc2c13

>  <Assigned category>
inactive

$$$$

* * *

Read-out record for NCI-H460 lung: GI50
Quantity: GI50

>  <Compound>
CCN(Cc1nc2cc(C(F)(F)F)ccc2nc1-c1ccccc1)c1ccc(OC)c(OC)c1

>  <Subject of test>
NCI-H460 lung

>  <Readout value>
22.2 µM

$$$$
>  <Compound>
COc1cc(-c2nn(C(=O)NS(=O)(=O)c3ccc(C)cc3)cc2-c2ccncc2)ccc1Cl

>  <Subject of test>
NCI-H460 lung

>  <Readout value>
13.3 µM

$$$$
>  <Compound>
Oc1ccc(Br)cc1/C=N/NC(=S)NC12CC3CC(CC(C3)C1)C2

>  <Subject of test>
NCI-H460 lung

>  <Readout value>
0.645 µM

$$$$
>  <Compound>
CCCC(=O)NC(c1ccc2c(c1)OCO2)c1ccc2cccnc2c1O (centres undefined)

>  <Subject of test>
NCI-H460 lung

>  <Readout value>
0.527 µM

$$$$

* * *

// reported TGI per item
# Tested on: SW-620 colon
# Test protocol: NCI tumour cell line growth inhibition, 48 h
Quantity: TGI

>  <Molecule>
Cc1c(C2Cc3ccccc3N2C(=O)/C=C\C(=O)O)c2ccccc2n1C (configuration not stated)

>  <Readout value>
41.5 µM

$$$$
>  <Molecule>
CCN(CC)Cc1ccc2cccnc2c1O

>  <Readout value>
> 100 µM

$$$$
>  <Molecule>
C=C(C)[C@@H]1CC[C@@H](C)[C@](O)([C@@H]2C[C@@H]([C@H](COC(=O)c3ccccc3)OC(=O)c3ccccc3)OC2=O)C1

>  <Readout value>
> 100 µM

$$$$
>  <Molecule>
CC(C)CNc1nc(N)[nH]c(=O)c1NC=O

>  <Readout value>
> 100 µM

$$$$
>  <Molecule>
CC1=NN2C(=O)CC(=O)N=C2S1

>  <Readout value>
> 100 µM

$$$$
>  <Molecule>
Cc1[nH]c(=O)nc(CC(O)(c2ccccc2)c2ccccc2)c1-c1ccccc1

>  <Readout value>
> 100 µM

$$$$
>  <Molecule>
NC(N)=N/N=C/c1cccc(Cl)c1Cl

>  <Readout value>
5.89 µM

$$$$
